- Test system: Coprococcus comes
- ASSAY PROCEDURE: growth AUC relative to DMSO control (median of replicates) (fraction); higher = more growth (less inhibition), active = hit call of the paper
- DETAILS: 20 µM; 24 h
Quick reference for growth AUC among some molecules
Could you respond with only the numeric value?

{"MOLECULE": "CCCCCCC(C)OC(=O)COc1nc(F)c(Cl)c(N)c1Cl (stereo not drawn)", "EXPERIMENTAL READOUT": "growth AUC", "NUMBER": 0.928}
{"MOLECULE": "COc1c(Cl)ccc(Cl)c1C(=O)O", "EXPERIMENTAL READOUT": "growth AUC", "NUMBER": 1.01}
{"MOLECULE": "CCNc1nc(NCC)nc(OC)n1", "EXPERIMENTAL READOUT": "growth AUC", "NUMBER": 1.05}
{"MOLECULE": "CCOC(=O)[C@@H](C)Oc1ccc(Oc2nc3ccc(Cl)cc3o2)cc1", "EXPERIMENTAL READOUT": "growth AUC", "NUMBER": 1.01}
{"MOLECULE": "CCSc1nc(NC(C)C)nc(NC(C)C)n1", "EXPERIMENTAL READOUT": "growth AUC", "NUMBER": 0.984}

Request: Let me know recorded growth AUC for COC(=O)C(C)Oc1ccc(Cl)cc1C (stereo not drawn) , thanks.
Response: 1.04

Request: Let me know recorded growth AUC for `O=C(O)COc1ccc(Cl)cc1CO` , thanks.
Response: 0.999

Request: Let me know recorded growth AUC for CCOC(=O)C1=NN(c2ccc(Cl)cc2Cl)C(C)(C(=O)OCC)C1 (stereo not drawn) , thanks.
Response: 0.97
